- target-or-system: h-cGAS (Homo sapiens (Human), UniProt Q8N884)
- Sequence (Q8N884 whole entry): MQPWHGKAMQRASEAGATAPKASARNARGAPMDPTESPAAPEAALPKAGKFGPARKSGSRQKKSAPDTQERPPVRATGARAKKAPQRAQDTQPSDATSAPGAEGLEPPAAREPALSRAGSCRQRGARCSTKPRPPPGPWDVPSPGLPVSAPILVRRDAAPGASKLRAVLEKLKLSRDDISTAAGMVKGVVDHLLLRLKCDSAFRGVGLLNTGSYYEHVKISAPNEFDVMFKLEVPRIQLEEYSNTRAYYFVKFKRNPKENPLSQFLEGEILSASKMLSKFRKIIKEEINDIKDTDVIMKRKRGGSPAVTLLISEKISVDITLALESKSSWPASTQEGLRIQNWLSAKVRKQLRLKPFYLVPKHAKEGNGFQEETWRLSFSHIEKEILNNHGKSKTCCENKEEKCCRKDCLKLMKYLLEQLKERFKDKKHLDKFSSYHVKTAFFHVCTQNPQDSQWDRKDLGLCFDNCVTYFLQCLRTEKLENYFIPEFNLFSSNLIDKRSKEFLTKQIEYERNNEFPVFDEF
- test-description: hcGAS Kinase-Glo assay
- Format: biochemical
- assay-context: Table D comparative data, raw data in parentheses; read-out: hcGAS (IC50)
parameter-measured: IC50 (µM)
Kindly answer with a numeric value in µM, unit omitted.

* Cn1ccc(-c2cc(Cl)c(Cl)c3[nH]c4c(c23)CN(C(=O)CO)CC4)n1 [Comparative Example B, reference compound] | 0.0352

Next compound, please.
Query O=C(CO)N1CCn2nc3c(Cl)c(Cl)ccc3c2C1 [Comparative Example C, reference compound] yields IC50 of 12.8

====

- target-or-system: h-cGAS (Homo sapiens (Human), UniProt Q8N884)
- test-description: hcGAS Kinase-Glo assay
- Type: biochemical
- assay-context: Table C, raw data in parentheses; read-out: hcGAS IC50
Lab note: compare IC50 with 90 nM, writing 1 (yes) if less and 0 (no) if equal or more.

- NCC(=O)N1Cc2[nH]c3c(Cl)c(Cl)ccc3c2C1: 0 (no)
- CC1c2c([nH]c3c(Cl)c(Cl)ccc23)CCN1C(=O)NO (racemic): 0 (no)
- Cn1cnc(C(=O)N2CCc3[nH]c4c(Cl)c(Cl)ccc4c3C2)n1: 0 (no)
- CC1c2c([nH]c3c(Cl)c(Cl)ccc23)CCN1C(=O)c1nccc(OCCO)n1 (racemic): 1 (yes)
- COc1cnc(C(=O)N2CCn3nc4c(Cl)c(Cl)ccc4c3[C@@H]2C)nc1 (single isomer, unassigned) [52B*]: 1 (yes)

Please let me know if CC1c2c([nH]c3c(Cl)c(Cl)ccc23)CCN1C(=O)c1ncc(N2CCOCC2)cn1 (racemic) shows IC50 below 90 nM. 1 (yes)

Consider the compound Nc1ccnc(C(=O)N2CCc3[nH]c4c(Cl)c(Cl)ccc4c3C2)n1 . Is its IC50 strictly less than 90 nM? 0 (no)
